Listed compounds paired with reported microsomal CLint at 0.5 µM
# MEASUREMENT_PROTOCOL: Clearance in rat liver microsomes at 0.5 uM preincubated for 5 mins followed by NADPH addition measured after 30 mins by MSMS analysis
# Assay type: ADME, microsome
# ASSAY_CONDITIONS: read-out: CLH

Past entries and their recorded results:
- ENTRY_SMILES: "Cc1cccc(C#Cc2ccc(-c3nn(C)cc3-c3cn[nH]c3)cc2)n1"
  microsomal CLint at 0.5 µM: "< 100 µL/min/mg"
- ENTRY_SMILES: "Cn1cc(-c2ccncc2)c(-c2ccc(C#Cc3ccccn3)cc2)n1"
  microsomal CLint at 0.5 µM: "< 100 µL/min/mg"
- ENTRY_SMILES: "Cn1cc(-c2ccncc2)c(-c2ccc(C#Cc3nccn3C)cc2)n1"
  microsomal CLint at 0.5 µM: "< 100 µL/min/mg"
- ENTRY_SMILES: "Cn1cc(-c2ccncc2)c(-c2ccc(C#Cc3nccs3)cc2)n1"
  microsomal CLint at 0.5 µM: "< 100 µL/min/mg"
- ENTRY_SMILES: "Cn1cc(-c2ccncc2)c(-c2ccc(C#Cc3ccc4ccccc4n3)cc2)n1"
  microsomal CLint at 0.5 µM: "< 100 µL/min/mg"

With those in mind, consider the next compound.
// sample `COc1cc(-c2nn(C)cc2-c2ccncc2)ccc1C#Cc1cccc(C)n1` , its microsomal CLint at 0.5 µM was 100 to 200 µL/min/mg

Taken from ChEMBL document CHEMBL4196227.
